Assay: Hemolytic activity against human RBC assessed as hemoglobin leakage at 250 ug/ml
Format: ADME, cell-based, Erythrocyte
Settings: human red blood cells, read-out: Activity
Peptide text beside a SMILES is read from it. * marks the point of attachment. Octanoyl = CCCCCCCC(=O)*
measured_quantity: hemolysis at 250 ug/ml (%)
Your answer is read as %, so omit the unit and give the number.

Q. Provide hemolysis at 250 ug/ml value for the following molecule: CCCCCCCC(=O)NCCCC[C@H](NC(=O)[C@H](Cc1c[nH]c2ccccc12)NC(=O)[C@H](CCCNC(=N)N)NC(=O)[C@H](Cc1c[nH]c2ccccc12)NC(=O)[C@H](CCCNC(=N)N)NC(=O)[C@H](Cc1c[nH]c2ccccc12)NC(=O)[C@@H](N)CCCNC(=N)N)C(N)=O (H-RWRWRWK(Octanoyl)-NH2)
A. 10
